subjectOfTest: HLA-A*0201 (human, UniProt A*02:01)
assaySummary: REVEAL MHC binding assay (ProImmune)
observationType: % Pass/fail control

# binder, observationType, experimentalValue
records = [
    ("IMSDSNYVV [Peptide ID 65 IMSDSNYVV (FLT3)]", "% Pass/fail control", "220 % of pass/fail control"),
    ("LMSFFILLL [Peptide ID 104 LMSFFILLL (CD53)]", "% Pass/fail control", "161 % of pass/fail control"),
    ("ALPAALAVI [Peptide ID 127 ALPAALAVI (CD7)]", "% Pass/fail control", "264 % of pass/fail control"),
    ("KLSLGLPGL [Peptide ID 118 KLSLGLPGL (CD19)]", "% Pass/fail control", "209 % of pass/fail control"),
    ("LLIHNNFGV [Peptide ID 42 LLIHNNFGV (CD53)]", "% Pass/fail control", "191 % of pass/fail control"),
    ("GMDRYLIYV [Peptide ID 9 GMDRYLIYV (CD18)]", "% Pass/fail control", "170 % of pass/fail control"),
    ("SLHSETWEI [Peptide ID 32 SLHSETWEI (CD11a)]", "% Pass/fail control", "179 % of pass/fail control"),
    ("YLMDLSYSV (Modified peptide) [Peptide ID 134 YLMDLSYSV (CD18, modified peptide)]", "% Pass/fail control", "242 % of pass/fail control"),
    ("LLLQVSSRV [Peptide ID 36 LLLQVSSRV (CD64)]", "% Pass/fail control", "180 % of pass/fail control"),
    ("LLLTNTFGA [Peptide ID 92 LLLTNTFGA (CD11a)]", "% Pass/fail control", "196 % of pass/fail control"),
    ("SLWRRPFNV [Peptide ID 22 SLWRRPFNV (MPO)]", "% Pass/fail control", "301 % of pass/fail control"),
    ("LLLREHNRL [Peptide ID 113 LLLREHNRL (MPO)]", "% Pass/fail control", "195 % of pass/fail control"),
    ("NVAELLHQV [Peptide ID 101 NVAELLHQV (ZAP-70)]", "% Pass/fail control", "200 % of pass/fail control"),
    ("KLFTSVFGV [Peptide ID 31 KLFTSVFGV (TdT)]", "% Pass/fail control", "200 % of pass/fail control"),
    ("VLWPRACWT [Peptide ID 100 VLWPRACWT (CD50)]", "% Pass/fail control", "139 % of pass/fail control"),
    ("KLKDLFTEL [Peptide ID 98 KLKDLFTEL (CD11a)]", "% Pass/fail control", "171 % of pass/fail control"),
    ("ALAVISFLL [Peptide ID 114 ALAVISFLL (CD7)]", "% Pass/fail control", "221 % of pass/fail control"),
    ("KLMSPKLYV [Peptide ID 55 KLMSPKLYV (CD19)]", "% Pass/fail control", "232 % of pass/fail control"),
    ("ELLDVSWLI [Peptide ID 74 ELLDVSWLI (TdT)]", "% Pass/fail control", "220 % of pass/fail control"),
    ("YLLRVIETL [Peptide ID 14 YLLRVIETL (HA-1)]", "% Pass/fail control", "179 % of pass/fail control"),
    ("WLQAQKVQV [Peptide ID 63 WLQAQKVQV (TdT)]", "% Pass/fail control", "190 % of pass/fail control"),
    ("HLLGPWLLL [Peptide ID 94 HLLGPWLLL (CD22)]", "% Pass/fail control", "212 % of pass/fail control"),
]
